Test system: PPARg:RXRa 30nM:10nM, anti-RXR (NR concentration 30 nM, RXRa partner concentration 10 nM)
Test: PBM binding z-score (relative to random genomic background probes); higher = stronger binding; sequences stand for … in GC…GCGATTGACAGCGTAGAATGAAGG
outcome_measure: PBM binding z-score
Answers are plain numbers.

Answered examples (5):
{"polymer_sequence": "TCAGACAGGTGAAGATAACTCAGGTACGCAGTCG", "PBM binding z-score": 3.92}
{"polymer_sequence": "TCAGACTGGTGAAGGTAACTCAGGTACGCAGTCG", "PBM binding z-score": 2.82}
{"polymer_sequence": "TCTCGGAGGACACGACAGGTCAGAGCTCGACATC", "PBM binding z-score": 2.11}
{"polymer_sequence": "CGAACTAGTTCATCCAGGACAGTGAATACATTGA", "PBM binding z-score": 0.0881}
{"polymer_sequence": "ATATGTAGGTTACATCCGGGTCAGTCAGGCTATG", "PBM binding z-score": 2.14}

Proceeding to the next sequence to report its PBM binding z-score.
Kindly note the recorded PBM binding z-score for TCATCTAGGTAAAGGTGAAAGTCGAACGATATGA , which is 4.58

The values you see were collected from the supplement of paper PMC6555819.
